method_description: reducers of endogenous Her2 protein level, primary screen, SKBR3 breast tumor cells, AlphaScreen, ATP viability (AID 461);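 on viability: percent of carrier control wells set as 100% viability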
test_conditions: 18-24 h, measured here: SKBR3 viability, ATP luminescence, at 10 µM
endpoint: viability (%)

compound=COc1ccc2nc(SCC(=O)NC(C)C)[nH]c2c1 endpoint=viability recorded_number=104
compound=CC(C)(C)n1nc2c(c1NC(=O)COc1ccc(Cl)cc1)CSC2 endpoint=viability recorded_number=97.5
compound=Cc1cccc(NC(=O)COc2ccc(Br)cc2)n1 endpoint=viability recorded_number=126
compound=O=C(Cn1cnc2ccccc2c1=O)NCCC(=O)N1CCN(c2ccccc2)CC1 endpoint=viability recorded_number=90.5
compound=CC(C)C(=O)Nc1ccc2c(c1)nc1n2CCSC1 endpoint=viability recorded_number=104
compound=CCCc1cc(=O)n2[nH]c(-c3ccc(Br)cc3)cc2n1 endpoint=viability recorded_number=90.5
compound=CCn1c(SCC(=O)Nc2ccc(C(C)=O)cc2)nc2ccccc21 endpoint=viability recorded_number=90
compound=CCCN(Cc1cc2cc(C)ccc2[nH]c1=O)C(=O)c1cccc(OC)c1 endpoint=viability recorded_number=114
compound=Cc1ccc(-c2nnc3ccc(SCC(=O)NCc4ccco4)nn23)cc1 endpoint=viability recorded_number=100
compound=CN(C)C(=O)N1CCC(C(=O)NC2CCCCCCC2)CC1 endpoint=viability recorded_number=90
compound=CCc1nnc(NC(=O)c2cccc(C(=O)Nc3nnc(CC)s3)n2)s1 endpoint=viability recorded_number=53.5
compound="CCS(=O)(=O)N1CCCC(C(=O)NCc2cccc(OC)c2)C1 (stereo unspecified)" endpoint=viability recorded_number=106
compound=COc1ccc(S(=O)(=O)NCCC(=O)NC2CCCCCCC2)cc1 endpoint=viability recorded_number=108
compound=Cc1ccccc1-c1nc(CN2CCC(C(=O)NCCCN3CCOCC3)CC2)c(C)o1 endpoint=viability recorded_number=86.5
compound=CCOc1cc(S(=O)(=O)NCc2ccccn2)c(C)cc1C endpoint=viability recorded_number=92.5
compound="COC(=O)C1=C(C)NC(=O)C1(NC(=O)c1cccnc1)C(F)(F)F (stereo unspecified)" endpoint=viability recorded_number=126
compound=CC(=O)N1CCN=C1SCc1c(F)cccc1Cl endpoint=viability recorded_number=102
compound="Cc1cc(NC(c2cccnc2)c2c(C)[nH]c3ccccc23)no1 (stereo unspecified)" endpoint=viability recorded_number=97
compound="CC(Oc1ccc(Cl)cc1Cl)C(=O)Nc1ncccn1 (stereo unspecified)" endpoint=viability recorded_number=93.5
compound=Cc1ncc(CSc2nc3ccccc3[nH]2)c(N)n1 endpoint=viability recorded_number=104
compound=Cc1ccc(S(=O)(=O)N(CCO)c2cc3c(s2)CCCC3)cc1 endpoint=viability recorded_number=114
compound="CCc1[nH]nc2c1C(c1ccncc1)C(C#N)=C(N)O2 (stereo unspecified)" endpoint=viability recorded_number=108
compound=Clc1ccc(SCCn2ccnc2)cc1 endpoint=viability recorded_number=96
compound=C=CCn1c(Cc2cccs2)nnc1SCC(=O)Nc1ccc(OC)c(OC)c1 endpoint=viability recorded_number=108
compound=COc1ccc(CNc2ccc(C(=O)O)cc2)cc1 endpoint=viability recorded_number=102
compound=O=C(Cn1cnc2ccccc2c1=O)NCCC(=O)N1CCN(Cc2ccccc2)CC1 endpoint=viability recorded_number=89
compound=CCCCN(Cc1cc2cc(OC)ccc2[nH]c1=O)C(=O)COc1ccccc1 endpoint=viability recorded_number=73
compound="CCCC(C)C(=O)Nc1ccc(C(N)=O)cc1 (stereo unspecified)" endpoint=viability recorded_number=95
compound=Cc1nc2scc(-c3cccs3)c2c(=O)n1-n1cccc1 endpoint=viability recorded_number=92
compound="CC1CN(S(=O)(=O)c2cccc(C(=O)OCc3cc(=O)oc4cc(O)ccc34)c2)CC(C)O1 (stereo unspecified)" endpoint=viability recorded_number=80.5
compound=COc1cccc(C2=Nn3c(nnc3-c3ccccc3O)SC2)c1 endpoint=viability recorded_number=100
compound="COc1ccc(Cn2nnnc2C(c2cccs2)N2CCOCC2)cc1 (stereo unspecified)" endpoint=viability recorded_number=105
compound=COC(=O)CCn1nnc(-c2cccs2)n1 endpoint=viability recorded_number=99.5
compound=COc1ccc(OCCC(=O)NCc2ccccc2)cc1 endpoint=viability recorded_number=103
compound="CCOC(=O)COc1ccc(C2NC(C(=O)O)CS2)cc1 (stereo unspecified)" endpoint=viability recorded_number=94.5
compound="Cc1ccc(N2C(=O)c3ccccc3C2O)nc1 (stereo unspecified)" endpoint=viability recorded_number=122

---

method_description: 384-well plate pilot, post-Golgi transport modulator project, inhibition of yeast transport mutant growth (AID 636)
test_conditions: absorbance 615 nm, about 18 h, stronger effect = higher value
Listed compounds paired with reported inhibition
endpoint: inhibition (%)

compound="O=C(O)C1CCCN1S(=O)(=O)c1ccc2ccccc2c1 (stereo not drawn)" recorded_number=0.27
compound="CCOC(=O)C1CCN(c2c(N3CCCC(C(=O)OCC)C3)c(=O)c2=O)CC1 (stereo not drawn)" recorded_number=2.31
compound="CC(Oc1ccccc1)C(=O)NC1CCN(Cc2ccccc2)CC1 (stereo not drawn)" recorded_number=-5.6
compound="O=S(=O)(NCC1CCCO1)c1cccc(C(F)(F)F)c1 (stereo not drawn)" recorded_number=-0.66
compound="COc1ccccc1CN1CCCC(C(=O)N(C)Cc2ccccc2)C1 (stereo not drawn)" recorded_number=-0.77
compound=Cn1c(=O)c2c(nc(NCc3ccc4c(c3)OCO4)n2Cc2ccccc2F)n(C)c1=O recorded_number=-3.65
compound=CCOC(=O)CSC1=C(C#N)C(=O)NC2(CCCCC2)S1 recorded_number=-6.16
compound=CCN(CC)c1ccc(/C=N/n2nnnc2N)c(O)c1 recorded_number=0.52
compound="COc1ccc(C2C3=C(CC(C)(C)CC3=O)Oc3ncn4nc(-c5cccnc5)nc4c32)cc1 (stereo not drawn)" recorded_number=-9.05
compound=NCc1cccc(-n2cccn2)c1 recorded_number=-3.64
compound="CC(=O)NC(Cc1cc(C)ccc1C)C(=O)N1CCN(C(=O)Nc2ccc(C(C)=O)cc2)CC1 (stereo not drawn)" recorded_number=-4.62
compound=COc1ccc(-c2nc(C#N)c(N3CCOCC3)o2)cc1OC recorded_number=-1.3
compound=CCCN(CCC)C(=O)CSc1nc2ccccc2c(=O)n1C1CCCC1 recorded_number=-3.68
compound=O=C(NCc1cccs1)c1cc2c(s1)-c1ccccc1OC2 recorded_number=-5.2
compound=CCn1c(=O)c(C(=O)NCc2ccc(OC)cc2)c(O)c2ccccc21 recorded_number=-3.46
compound=CCCCOC(=O)CNc1nnc(SCC(=O)OCC)[nH]c1=O recorded_number=-0.91
compound=Cc1cc2c(=O)n(CC(=O)N3CCN(c4ccccc4)CC3)cnc2s1 recorded_number=-2.11
compound="CCCOC(=O)c1[nH]c2c(c1C)C(=O)CC(c1ccc(OC)c(OC)c1)C2 (stereo not drawn)" recorded_number=2.63
compound=Oc1c(Cl)cc(Cl)cc1CNc1ccc(Br)cn1 recorded_number=1.58
compound=Clc1ccccc1OCc1nn2c(-c3ccncc3)nnc2s1 recorded_number=-5.95
compound=Cc1nc(CCNC(=O)c2ccccc2)cs1 recorded_number=0.27
compound=COCCn1nnnc1CN(Cc1cccnc1)Cc1cc2cc(OC)ccc2[nH]c1=O recorded_number=-7.07
compound=CN(C(=O)CSc1nc2c(c(=O)[nH]1)CCCC2)C1CCCCC1 recorded_number=-1.97
compound=COc1ccc(NC(=O)CCc2nc(-c3ccccc3F)no2)cc1 recorded_number=-0.26
compound=CC(C)CCNC(=O)NC(=O)CN1C(=O)NC2(CCCCC2)C1=O recorded_number=1.32
compound="CC(=O)Nc1cccc(OCC(O)Cn2cnc3ccccc32)c1 (stereo not drawn)" recorded_number=-0.14
compound=C/C(=N\O)C(=O)NCCCNCCCN(C)C recorded_number=-6.16
compound=COC(=O)c1cc(OC)c(OC)cc1NC(=O)CCC1CCCC1 recorded_number=0.39
compound="Cc1ccc(-c2noc(C3CCCN(C(=O)c4ccc(F)cc4F)C3)n2)cc1 (stereo not drawn)" recorded_number=-2.16
compound=COc1cc(S(=O)(=O)N2CCOCC2)ccc1NC(=O)COC(=O)c1ccccn1 recorded_number=-6.71
compound=COc1ccc(C)cc1NC(=O)CSc1nnnn1Cc1ccccc1 recorded_number=-1.49
compound=O=C(CSc1n[nH]c(-c2cccs2)n1)N1CCN(S(=O)(=O)c2ccccc2)CC1 recorded_number=0.91
compound=O=C(Nc1ccc(CN2CCCCC2)cc1)c1ccc2c(c1)OCO2 recorded_number=-2.5

---

# Her2 level per record follows
target_of_assay: Receptor tyrosine-protein kinase erbB-2 (Homo sapiens) (UniProt P04626)
Sequence (P04626 whole entry, looked up): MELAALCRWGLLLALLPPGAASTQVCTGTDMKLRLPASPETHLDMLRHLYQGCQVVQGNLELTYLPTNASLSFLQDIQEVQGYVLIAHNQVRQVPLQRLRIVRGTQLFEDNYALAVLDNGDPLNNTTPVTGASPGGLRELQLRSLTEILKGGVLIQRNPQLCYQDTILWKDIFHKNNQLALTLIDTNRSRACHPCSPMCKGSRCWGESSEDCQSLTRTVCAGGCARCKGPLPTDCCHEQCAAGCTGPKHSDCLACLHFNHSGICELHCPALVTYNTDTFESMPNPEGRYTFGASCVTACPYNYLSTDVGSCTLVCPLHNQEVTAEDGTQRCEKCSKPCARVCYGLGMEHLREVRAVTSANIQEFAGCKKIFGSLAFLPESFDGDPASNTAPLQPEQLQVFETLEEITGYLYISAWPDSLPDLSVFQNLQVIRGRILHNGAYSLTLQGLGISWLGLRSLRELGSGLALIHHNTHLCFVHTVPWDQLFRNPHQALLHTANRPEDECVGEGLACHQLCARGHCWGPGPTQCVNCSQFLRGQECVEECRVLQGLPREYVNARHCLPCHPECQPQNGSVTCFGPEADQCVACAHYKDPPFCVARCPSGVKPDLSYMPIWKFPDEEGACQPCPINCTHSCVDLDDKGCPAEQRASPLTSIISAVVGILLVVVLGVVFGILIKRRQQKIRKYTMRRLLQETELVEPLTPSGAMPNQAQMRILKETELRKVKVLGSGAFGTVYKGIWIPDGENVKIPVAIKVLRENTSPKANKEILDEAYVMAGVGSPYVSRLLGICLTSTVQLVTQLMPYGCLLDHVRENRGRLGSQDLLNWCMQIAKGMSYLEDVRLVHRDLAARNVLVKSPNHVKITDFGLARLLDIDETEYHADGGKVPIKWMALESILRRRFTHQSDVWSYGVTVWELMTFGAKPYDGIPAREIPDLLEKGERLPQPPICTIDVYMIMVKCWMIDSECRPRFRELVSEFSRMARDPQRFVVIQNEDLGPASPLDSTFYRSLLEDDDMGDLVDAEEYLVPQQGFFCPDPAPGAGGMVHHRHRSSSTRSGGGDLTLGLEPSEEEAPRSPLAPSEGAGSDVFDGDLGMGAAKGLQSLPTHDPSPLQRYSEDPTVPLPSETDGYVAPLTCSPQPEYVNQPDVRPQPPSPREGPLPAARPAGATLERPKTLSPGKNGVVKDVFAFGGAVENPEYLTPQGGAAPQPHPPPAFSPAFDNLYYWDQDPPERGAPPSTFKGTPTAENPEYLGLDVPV
method_description: reducers of endogenous Her2 protein level, primary screen, SKBR3 breast tumor cells, AlphaScreen, ATP viability (AID 461);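 on Her2 level: lower value means less Her2 protein in the cells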;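 on viability: percent of carrier control wells set as 100% viability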
test_conditions: 18-24 h, at 10 µM, stronger effect = lower value
endpoint: Her2 level (%)

molecule=COc1cccc(C(=O)CN2CCC(NC(=O)NC3CCCCC3)CC2)c1 target_of_assay="Receptor tyrosine-protein kinase erbB-2 (Homo sapiens) (UniProt P04626)" measure_unit=% recorded_number=101
molecule=O=C(NCc1cccnc1)c1ccc(=O)oc1 target_of_assay="Receptor tyrosine-protein kinase erbB-2 (Homo sapiens) (UniProt P04626)" measure_unit=% recorded_number=90
molecule=Cn1c(=O)c2c(nc(SCCCC#N)n2Cc2ccccc2F)n(C)c1=O target_of_assay="Receptor tyrosine-protein kinase erbB-2 (Homo sapiens) (UniProt P04626)" measure_unit=% recorded_number=84.5
molecule=CC(C)C(=O)Nc1ccc2c(c1)nc1n2CCSC1 target_of_assay="Receptor tyrosine-protein kinase erbB-2 (Homo sapiens) (UniProt P04626)" measure_unit=% recorded_number=95
molecule=Cn1c(=O)c2c(nc(Oc3ccc4c(c3)OCO4)n2Cc2ccc(F)cc2)n(C)c1=O target_of_assay="Receptor tyrosine-protein kinase erbB-2 (Homo sapiens) (UniProt P04626)" measure_unit=% recorded_number=74.5
molecule=Cc1nc2ccccc2c(=O)n1CC(=O)N1CCOCC1 target_of_assay="Receptor tyrosine-protein kinase erbB-2 (Homo sapiens) (UniProt P04626)" measure_unit=% recorded_number=90.5
molecule=COc1cc(CNc2ccc(N3CCOCC3)c(C(=O)O)c2)ccc1OCC(N)=O target_of_assay="Receptor tyrosine-protein kinase erbB-2 (Homo sapiens) (UniProt P04626)" measure_unit=% recorded_number=102
molecule="Cc1ccc(-c2noc(-c3ccccc3C(=O)NCC3CCCO3)n2)cc1 (stereo not given)" target_of_assay="Receptor tyrosine-protein kinase erbB-2 (Homo sapiens) (UniProt P04626)" measure_unit=% recorded_number=107
molecule=Cc1nc(=S)n(-c2ccccc2)[nH]1 target_of_assay="Receptor tyrosine-protein kinase erbB-2 (Homo sapiens) (UniProt P04626)" measure_unit=% recorded_number=107
molecule=Cn1cccc1Cc1nnc(SCC(=O)Nc2ccccc2F)n1-c1ccc(F)cc1 target_of_assay="Receptor tyrosine-protein kinase erbB-2 (Homo sapiens) (UniProt P04626)" measure_unit=% recorded_number=99.5
